Biological target: T1, human B7-H4 extracellular domain (human, UniProt Q7Z7D3 29-258)
T1 construct: Soluble ECD used as SPR analyte; also called huB7-H4 ECD; huB7-H4
T1 sequence: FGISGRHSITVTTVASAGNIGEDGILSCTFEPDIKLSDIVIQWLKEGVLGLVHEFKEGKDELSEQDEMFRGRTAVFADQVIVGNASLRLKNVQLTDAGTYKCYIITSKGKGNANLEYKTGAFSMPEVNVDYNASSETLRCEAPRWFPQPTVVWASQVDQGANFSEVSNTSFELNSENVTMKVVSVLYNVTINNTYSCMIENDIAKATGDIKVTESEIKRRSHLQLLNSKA
Test: SPR 37 C; IgG1 on anti-hFc chip, ECD analyte;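 further: antibodies captured, then B7-H4 ECD injected at five 3-fold dilutions from 300 nM, 65 s association and 600 s dissociation, fitted to a 1:1 Langmuir model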
measurement-label: koff (s⁻¹)
Unit s⁻¹ implied. Number only.

binder	measurement-label	observed-value
B7-H4 antibody 1080 (antibody, human IgG1, kappa, V domains shown, IgG1 mAb format) VH: EVQLVESGGGLVQPGGSLRLSCAVSGGSFSGYYWNWIRQPPGKGLEWIGEINHSGSATYNPSLKSRVTISVDTAKNSLYLQMNSLRAEDTAVYYCARGLYNWNVDHWGQGTLVTVSS VL: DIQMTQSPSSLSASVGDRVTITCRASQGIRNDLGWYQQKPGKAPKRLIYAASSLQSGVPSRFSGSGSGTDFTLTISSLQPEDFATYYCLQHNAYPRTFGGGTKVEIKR	koff	0.0054

Enquiry: For the binder B7-H4 antibody 1117 (antibody, human IgG1, kappa, V domains shown, IgG1 mAb format) VH: EVQLLESGGGLVQPGGSLRLSCAASGFTFSSYAMSWVRQAPGKGLEWVSAISGGGGSTYYADSVKGRFTISRDNSKNTLYLQMNSLRAEDTAVYYCARDIQWYGESTLFDYWGQGTLVTVSS VL: DIQMTQSPSSLSASVGDRVTITCRASQSTRSWLAWLQQKPGKAPKLLIYKASSLESGVPSRFSGSGSGTDFTLTISSLQPEDFATYYCQQYGSYSRTFGQGTKVEIKR , what koff is on record?
Return: 0.000949

Data provenance: patent US20220017622A1
